# System: Vaccinia virus
# Method Description: Antiviral activity against Vaccinia virus infected in HEL cells assessed as reduction in viral plaque formation
# Type: functional, organism-based
# Test Context: Orthopoxvirus vaccinia
Parameter: pEC50
pEC50 is defined as minus the log10 of a concentration measured in mol/L.

Item: "O=c1[nH]c(=O)n([C@H]2C[C@H](O)[C@@H](CO)O2)cc1C#CC#Cc1ccc(OC(F)(F)F)cc1" Test system: Vaccinia virus Read-out: pEC50 Value: ?
4.70

* * *

For each of the compounds below, state its logP.
# Method Description: Lipophilicity, log P of the compound
# Assay type: physicochemical
# Test Context: octanol/water

Name the reported logP value associated with the compound "O=c1[nH]c(=O)n([C@H]2C[C@H](O)[C@@H](CO)O2)cc1C#CC#CCO"
-1.45

Check "O=c1[nH]c(=O)n([C@H]2C[C@H](O)[C@@H](CO)O2)cc1C#CC#Cc1ccc(OC(F)(F)F)cc1" too.
2.39

Check "O=c1[nH]c(=O)n([C@H]2C[C@H](O)[C@@H](CO)O2)cc1C#CC#Cc1ccccc1" too.
0.96

Check "CCCCCCc1ccc(C#CC#Cc2cn([C@H]3C[C@H](O)[C@@H](CO)O3)c(=O)[nH]c2=O)cc1" too.
3.7

Check "O=c1[nH]c(=O)n([C@H]2C[C@H](O)[C@@H](CO)O2)cc1C#CC#CCC1CCCC1" too.
1.43

Check "Nc1ccc(C#CC#Cc2cn([C@H]3C[C@H](O)[C@@H](CO)O3)c(=O)[nH]c2=O)cc1" too.
0.13

Check "O=c1[nH]c(=O)n([C@H]2C[C@H](O)[C@@H](CO)O2)cc1C#CC#Cc1ccc([N+](=O)[O-])cc1" too.
0.9

Check "CCCc1ccc(C#CC#Cc2cn([C@H]3C[C@H](O)[C@@H](CO)O3)c(=O)[nH]c2=O)cc1" too.
2.36

Check "Nc1cccc(C#CC#Cc2cn([C@H]3C[C@H](O)[C@@H](CO)O3)c(=O)[nH]c2=O)c1" too.
0.13
